target.or.test.system: Histone deacetylase 3 (Homo sapiens)
Sequence (O15379 whole entry): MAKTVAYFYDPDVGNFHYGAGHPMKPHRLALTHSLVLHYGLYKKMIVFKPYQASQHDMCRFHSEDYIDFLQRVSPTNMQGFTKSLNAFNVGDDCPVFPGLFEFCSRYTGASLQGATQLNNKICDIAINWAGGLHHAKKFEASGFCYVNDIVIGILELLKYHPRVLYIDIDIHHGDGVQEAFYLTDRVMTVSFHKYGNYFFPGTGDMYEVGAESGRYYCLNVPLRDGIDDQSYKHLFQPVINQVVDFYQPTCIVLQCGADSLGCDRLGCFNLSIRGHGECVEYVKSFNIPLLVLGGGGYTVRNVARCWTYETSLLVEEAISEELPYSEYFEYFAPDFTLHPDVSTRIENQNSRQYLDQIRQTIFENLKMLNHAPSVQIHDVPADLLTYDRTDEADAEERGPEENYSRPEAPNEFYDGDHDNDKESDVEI
run.description: Inhibition of human recombinant full-length HDAC3 using fluorophore conjugated substrate by fluorescence assay
pIC50: −log10 of the molar value.

smiles.representation | pIC50
O=C(CCCCCCC(=O)Nc1ccc([19F])cc1)NO | 7.62

====

target.or.test.system: Histone deacetylase 2 (Homo sapiens, UniProt Q92769)
Sequence (Q92769 whole entry): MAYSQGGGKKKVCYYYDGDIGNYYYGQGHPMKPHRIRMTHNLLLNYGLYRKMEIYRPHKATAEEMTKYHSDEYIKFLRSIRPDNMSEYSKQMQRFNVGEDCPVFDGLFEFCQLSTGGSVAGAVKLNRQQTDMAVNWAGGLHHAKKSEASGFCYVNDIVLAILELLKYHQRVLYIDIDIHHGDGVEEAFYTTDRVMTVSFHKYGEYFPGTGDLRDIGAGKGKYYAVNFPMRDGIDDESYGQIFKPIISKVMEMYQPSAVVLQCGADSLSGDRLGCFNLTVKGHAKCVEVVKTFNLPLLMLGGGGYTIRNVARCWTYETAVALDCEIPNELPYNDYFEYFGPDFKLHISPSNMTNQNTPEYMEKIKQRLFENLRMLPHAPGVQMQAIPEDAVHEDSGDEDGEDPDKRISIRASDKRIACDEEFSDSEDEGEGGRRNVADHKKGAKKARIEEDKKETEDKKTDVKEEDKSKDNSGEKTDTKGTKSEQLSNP
run.description: Inhibition of human recombinant full-length HDAC2 using fluorophore conjugated substrate by fluorescence assay

smiles.representation | IC50 / nM
O=C(CCCCCCC(=O)Nc1ccc([19F])cc1)NO | 12.7

====

target.or.test.system: Protein deacetylase HDAC6 (Homo sapiens)
Sequence (Q9UBN7 whole entry): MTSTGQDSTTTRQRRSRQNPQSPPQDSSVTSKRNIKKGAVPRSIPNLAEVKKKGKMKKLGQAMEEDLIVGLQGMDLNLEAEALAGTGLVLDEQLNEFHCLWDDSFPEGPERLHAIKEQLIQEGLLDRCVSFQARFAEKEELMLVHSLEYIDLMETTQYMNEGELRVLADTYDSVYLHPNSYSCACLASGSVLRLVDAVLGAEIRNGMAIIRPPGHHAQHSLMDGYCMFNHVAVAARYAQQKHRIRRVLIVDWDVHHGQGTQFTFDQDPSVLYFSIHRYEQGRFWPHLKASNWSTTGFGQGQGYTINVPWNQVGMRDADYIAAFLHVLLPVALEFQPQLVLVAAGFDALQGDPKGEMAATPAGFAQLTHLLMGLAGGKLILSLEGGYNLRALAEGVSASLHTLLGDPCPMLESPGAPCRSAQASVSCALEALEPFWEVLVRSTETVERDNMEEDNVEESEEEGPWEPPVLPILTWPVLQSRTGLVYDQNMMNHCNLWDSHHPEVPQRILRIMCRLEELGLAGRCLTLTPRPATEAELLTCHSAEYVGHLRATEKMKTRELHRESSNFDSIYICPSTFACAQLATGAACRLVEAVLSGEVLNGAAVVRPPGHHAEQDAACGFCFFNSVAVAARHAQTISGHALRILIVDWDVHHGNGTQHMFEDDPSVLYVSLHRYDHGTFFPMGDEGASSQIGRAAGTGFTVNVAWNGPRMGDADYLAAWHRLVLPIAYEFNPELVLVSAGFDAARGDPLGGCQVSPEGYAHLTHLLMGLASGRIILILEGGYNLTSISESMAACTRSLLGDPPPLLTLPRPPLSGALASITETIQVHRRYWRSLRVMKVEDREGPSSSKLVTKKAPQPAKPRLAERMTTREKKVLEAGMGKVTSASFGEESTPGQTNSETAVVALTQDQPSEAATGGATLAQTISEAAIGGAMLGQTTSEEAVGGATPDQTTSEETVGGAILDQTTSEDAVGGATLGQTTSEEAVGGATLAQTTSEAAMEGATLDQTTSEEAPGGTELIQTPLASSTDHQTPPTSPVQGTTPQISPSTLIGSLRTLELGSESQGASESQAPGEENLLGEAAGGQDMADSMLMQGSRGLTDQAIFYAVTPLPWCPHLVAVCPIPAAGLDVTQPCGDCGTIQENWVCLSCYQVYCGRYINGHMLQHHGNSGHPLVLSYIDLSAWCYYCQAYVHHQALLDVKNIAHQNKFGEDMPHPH
run.description: Inhibition of human recombinant full-length HDAC6 using fluorophore conjugated substrate by fluorescence assay

smiles.representation | target.or.test.system | IC50
O=C(CCCCCCC(=O)Nc1ccc([19F])cc1)NO | Protein deacetylase HDAC6 (Homo sapiens) | 50.2 nM
